# Test system: HepG2 cells
# protocolText: In vitro cytotoxicity, methylene blue assay / cell count: HepG2
# Format: cell-based
# conditionSet: Homo sapiens, three generations, mean ± standard deviation of five experiments, read-out: ID50 (the source's name)
propertyName: pIC50
Please keep in mind that pIC50 is minus log10 of the molar concentration; only the number is needed.

Quote HepG2 cells pIC50 for entry Nc1ccn([C@@H]2O[C@H](CO)[C@@H](O)[C@@H]2O)c(=O)n1 [AraC, Cytosine arabinoside] . 6.90

###

# Test system: HepG2 cells
# protocolText: In vitro cytotoxicity, methylene blue assay / cell count: HepG2
# Format: cell-based
# conditionSet: three generations, mean ± standard deviation of five experiments, read-out: ID50 (the source's name)
propertyName: IC50

Quote HepG2 cells IC50 for entry O=c1ccn(C2COC(CO)O2)c(=O)[nH]1 (single isomer, unassigned; (-)) [(−)-OddU] . > 30 µM

###

# System: PC-3 prostate carcinoma line
# protocolText: In vitro cytotoxicity, methylene blue assay / cell count: PC-3
# Type: cell-based
# conditionSet: three generations, mean ± standard deviation of five experiments, read-out: ID50 (the source's name)
propertyName: pIC50
Please keep in mind that pIC50 is minus log10 of the molar concentration; only the number is needed.

>>> observedvalue("Nc1ccn([C@@H]2CO[C@H](CO)O2)c(=O)n1 [(−)-OddC]")
7.25

Then there is this molecule:
Quote PC-3 prostate carcinoma line pIC50 for entry Nc1ccn([C@@H]2O[C@H](CO)[C@@H](O)[C@@H]2O)c(=O)n1 [AraC, Cytosine arabinoside] . 6.70
